Entries annotated with measured pKi
- system-tested: κ opioid receptor (Cavia porcellus, UniProt P41144)
- Construct: determined in guinea pig brain cells; from tissue; host or cells: guinea pig brain
- Sequence (P41144 whole entry): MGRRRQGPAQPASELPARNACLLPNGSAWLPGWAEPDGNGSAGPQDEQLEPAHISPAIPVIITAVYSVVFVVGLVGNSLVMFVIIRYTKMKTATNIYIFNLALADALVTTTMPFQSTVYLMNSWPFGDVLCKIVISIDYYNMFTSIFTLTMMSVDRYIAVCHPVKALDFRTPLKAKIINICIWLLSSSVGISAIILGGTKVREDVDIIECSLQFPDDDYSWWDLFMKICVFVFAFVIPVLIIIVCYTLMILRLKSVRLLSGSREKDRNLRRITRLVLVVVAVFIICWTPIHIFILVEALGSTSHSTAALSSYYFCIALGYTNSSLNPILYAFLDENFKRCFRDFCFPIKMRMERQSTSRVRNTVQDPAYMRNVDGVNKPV
- assay-method-text: biochemical
- Format: binding, guinea pig
- test-settings: [3H] U69,593 (κ)
pKi: −log10 of the molar value.
measurement-label: pKi

compound | system-tested | reported
CC1C2Cc3ccc(O)cc3C1(C)CCN2CC1CCCO1 (single isomer, unassigned) [Example 27, reference compound] | κ opioid receptor (Cavia porcellus, UniProt P41144) | 8.82
C[C@H]1[C@H]2Cc3ccc(CN)cc3[C@]1(C)CCN2C[C@@H]1CCCO1 [Example 29] | κ opioid receptor (Cavia porcellus, UniProt P41144) | 7.74
CC1C2C(=O)c3ccc(C#N)cc3C1(C)CCN2CC1CC1 (stereo not drawn) [Example 22] | κ opioid receptor (Cavia porcellus, UniProt P41144) | 7.23
CC1C2Cc3ccc(C(N)=O)cc3C1(C)CCN2CC1CCCO1 (single isomer, unassigned) [Example 26] | κ opioid receptor (Cavia porcellus, UniProt P41144) | 10.05
C[C@H]1[C@H]2C(=O)c3ccc(C(N)=O)cc3[C@]1(C)CCN2CC1CC1 (relative stereo) [Example 23] | κ opioid receptor (Cavia porcellus, UniProt P41144) | 8.74
CC1C2C(=O)c3ccc(O)cc3[C@@]1(C)CCN2CC1CC1 (mixture of isomers) [(±)-ketocyclazocine, Ketocyclazocine, reference compound] | κ opioid receptor (Cavia porcellus, UniProt P41144) | 9.00
CC1C2Cc3ccc(C(N)=O)cc3C1(C)CCN2CC1CCCO1 (single isomer, unassigned) [Example 28] | κ opioid receptor (Cavia porcellus, UniProt P41144) | 8.55
Oc1ccc2c3c1O[C@H]1c4[nH]c5ccccc5c4C[C@@]4(O)[C@@H](C2)N(CC2CC2)CC[C@]314 [naltrindole (3-OH), Naltrindole, reference compound] | κ opioid receptor (Cavia porcellus, UniProt P41144) | 8.34
CC1C2Cc3ccc(O)cc3C1(C)CCN2CC1CCCO1 (single isomer, unassigned) [Example 25, reference compound] | κ opioid receptor (Cavia porcellus, UniProt P41144) | 10.05
